Experiment: NCI Yeast Anticancer Drug Screen. Data for the rad18 strain (AID 177)
Conditions: S. cerevisiae rad18 mutant growth inhibition; at 11.0 µM; stronger effect = higher value
This is part of a sample that, as a whole, favours compounds with a hit. Of some 79,000 tested, about 15% had one in any assay.
molecules and their reported growth inhibition
Unit % implied. Number only.

O=[n+]1c2ccc(Cl)cc2n([O-])c2ccc(Cl)cc21    25

Q) Query (molecule): "COc1cc(/C=C2\CCc3ccccc3C2=O)cc(OC)c1OC" ; field requested: growth inhibition
A) 7

Q) Same read-out for "COc1cccc2nc3ccccc3nc12" ?
A) 16

Q) Same read-out for "NNc1c(F)c(F)cc(F)c1F" ?
A) -17

Q) Same read-out for CC(CC(C)(C)[N+](C)(C)C)[N+](C)(C)C (centres undefined) ?
A) 14

Q) Same read-out for "Cc1cc(CO)c(O)c(CNCc2cc(C)cc(CO)c2O)c1" ?
A) -4

Q) Same read-out for C=C1CC(Cn2cc(Br)c(=O)[nH]c2=O)(c2ccc(-c3ccccc3)cc2)OC1=O (centres undefined) ?
A) 10

Q) Same read-out for CC(O)C(O)C(O)C(/C=N\Nc1ccccc1)=N/Nc1ccccc1 (centres undefined) ?
A) 9

Q) Same read-out for "O=C1CSc2cc([N+](=O)[O-])ccc2N1" ?
A) -3
